Answer each item with its documented kon.
# tested-on: T1, A beta oligomer (synthetic A beta1-40, HCl form, 0.1 mg/ml in PBS, incubated at 37 degrees C for one hour) (UniProt P05067 672-711)
# T1 construct: domain: A beta1-40; non-fibrous multimer of the peptide; also called A beta 1-40 oligomer
# procedure-details: SPR (Biacore 3000)
State just the number; it will be interpreted in M⁻¹ s⁻¹.

**Q:** // kon lookup, key: IR-139 antibody (antibody, mouse IgG2b, V domains shown, mouse IgG2b) VH: DVQLVESGGGLVQPGGSRKLSCAASGFTFSSFGMHWVRQAPEKGLEWVAYISSGSSTIYYADTVKGRFTISRDNPKNTLFLQMTSLRSEDTAMYYCARDEGYFDYWGQGTTLTVSS VL: DVVMTQTPLSLPVSLGDQASISCRSSQSLVHSNGNTYLHWYLQKPGQSPKLLIYKVSNRFSGVPDRFSGSGSGTDFTLKISRVEAEDLGVYFCSQSTHVPLTFGAGTKLELK
**A:** 32600

**Q:** // kon lookup, key: IR-128 antibody (antibody, V domains shown, mouse IgG2a) VH: DVQLVESGGGLVQPGGSRKLSCAASGFTFSSFGMHWVRQAPEKGLEWVAYISSGSSTIYYADTVKGRFTISRDNPKNTLFLQMTSLRSEDTAMYYCAREGHFDYWGQGTTLTVSS VL: DVVMTQTPLSLPVSLGDQASISCRSSQSLVHSNGNTYLHWYLQKPGQSPKLLIYKVSNRFSGVPDRFSGSGSGTDFTLKISRVEAEDLGVYFCSQSTHVPPTFGGGTKLEIK
**A:** 345000

**Q:** // kon lookup, key: IR-155 antibody (antibody, V domains shown, mouse IgG2a) VH: DVQLVESGGGLVQPGGSRKLSCAASGFTFSSFGMHWVRQAPEKGLEWVAYISSGSSTIYYADTVKGRFTISRDNPKNTLFLQMTSLRSEDTAMYYCARLDGYRGDYWGQGTTLTVSS VL: DVVMTQTPLSLPVSLGDQASISCRSSQSLVHSNGNTYLHWYLQKPGQSPKLLIYKVSNRFSGVPDRFSGSGSGTDFTLKISRVEAEDLGVYFCSQSTHVPLTFGSGTKLEIK
**A:** 351000
